What max response was measured for each of the following?
- measurement protocol: qHTS Assay for Lipid Storage Modulators (AID 1519)
- condition label: Drosophila S3 cells, BODIPY lipid droplet/cell ratio, laser cytometry; measured here: cell count channel max response; cells loaded with oleic acid
Counter-ions that a name gives are not always drawn. Records with an inconclusive call do not appear. Peptide text beside a SMILES is read from it. * marks the point of attachment. Tfa = O=C(C(F)(F)F)*
Please give a number only; it is taken to be in %.

// query max response value for entry C=C[C@]1(C)CC(=O)[C@@]2(O)[C@@]3(C)C(O)CCC(C)(C)C3C(O)C(OC(C)=O)[C@@]2(C)O1 (some centres undefined)
19.4

// query max response value for entry CCNC(=O)CCC(N)C(=O)O (centres undefined)
9.46

// query max response value for entry `CN[C@H]1[C@H](O)[C@@H](O[C@@H]2[C@H](O)[C@@H](O[C@H]3OC(CN)=CC[C@H]3N)[C@@H](N)C[C@H]2N)OC[C@@]1(C)O`
-1.73

// query max response value for entry `CN=C(NC#N)NCCSC[C@H]1N=CN=C1C`
-1.59

// query max response value for entry `CC[C@H](CO)NCCN[C@@H](CC)CO`
4.79

// query max response value for entry `COc1ccc(OC)c([C@H](O)CNC(=O)CN)c1`
0.279

// query max response value for entry CCOC(=O)C(CCc1ccccc1)NC(C)C(=O)N1C(C(=O)O)CC2CCCC21 (centres undefined)
13.5

// query max response value for entry `CC1=CC(=O)C2=C(C)CC[C@@H]3[C@@H](OC(=O)[C@H]3C)[C@H]12`
-15.8

// query max response value for entry `O=C(O)[C@@H]1CCCNC1`
-8.86

// query max response value for entry CC1C(O)CC2C(C(=O)O)=CO[C@@H](O[C@H]3OC(CO)C(O)C(O)C3O)C21 (some centres undefined)
10.9

// query max response value for entry C[C@@H]1CCC2[C@](C)(CO)C(O)CC[C@@]2(C)[C@@]12CC[C@](CO)(CCO)O2 (some centres undefined)
11.4

// query max response value for entry C=Cc1c(C)/c2[n-]/c1=C\c1[n-]c(c(CC)c1C)/C=c1\[n-]c3c(c1C)C(=O)C(C(=O)[O-])C=3c1[n-]c(c(C)c1CCC(=O)[O-])\C=2.[Cu].[Na+].[Na+] (centres undefined)
-5.82

// query max response value for entry COc1ccc(C2CC(=O)c3c(O)cc(O[C@H]4OC(COC5OC(C)C(O)C(O)[C@@H]5O)C(O)C(O)C4O)cc3O2)cc1O (some centres undefined)
1.58

// query max response value for entry COc1ccc2c(c1)OCC(Cc1ccc(OC)c(OC)c1)C2O (centres undefined)
8.42

// query max response value for entry `CCN(CC)[C@@H](C)CN1c2ccccc2Sc2ccccc21`
-2.62

// query max response value for entry `C=CCO[C@@H](Cn1ccnc1)c1ccc(Cl)cc1Cl`
-10.1

// query max response value for entry `COc1ccccc1-c1coc2cc(O)ccc2c1=O`
-6.55

// query max response value for entry CC(C)C(NC(=O)C(Cc1ccc(O)cc1)NC(=O)C(NC(=O)C(F)(F)F)C(C)C)C(=O)O (stereo not drawn) (Tfa-Val-Tyr-Val-OH; configuration not given here)
0.432

// query max response value for entry `C=N[C@H](C(=O)N[C@@H]1C(=O)N2[C@@H]1SC(C)(C)[C@@H]2C(=O)O)c1ccccc1`
-2.49
